METHOD SUMMARY: Metabolic stability in monkey liver microsomes assessed as intrinsic clearance at 1 uM preincubated for 3 mins with NADPH and measured up to 60 mins by LC-MS/MS analysis
Assay type: ADME, Macaca mulatta, Microsome
SETUP CONDITIONS: rhesus monkey, time < 63 min, read-out: CLH
MEASURED METRIC: CLint scaled at 1 µM (mL/min/kg)
Give the quantity in mL/min/kg, number only.

Input line: Dear colleague, I am looking for the recorded CLint scaled at 1 µM of the following compound: C#Cc1c(F)ccc2cc(O)cc(-c3ncc4c(N5CC6CCC(C5)N6)nc(OCC5(CN6CCC7(CC6)CC(N6CCC(c8cc9c(cc8F)c(N8CCC(=O)NC8=O)nn9C)CC6)C7)CC5)nc4c3F)c12
Output line: 4.3

---

METHOD SUMMARY: AUC (0 to t) in male Beagle dog at 1 mg/kg, iv measured up to 24 hrs by LC-MS/MS analysis
Type: ADME, organism-based, Canis lupus familiaris
SETUP CONDITIONS: in vivo
MEASURED METRIC: AUC(0-t) at 24 h (µM·h)
Give the quantity in µM·h, number only.

Input line: Dear colleague, I am looking for the recorded AUC(0-t) at 24 h of the following molecule: C#Cc1c(F)ccc2cc(O)cc(-c3ncc4c(N5CC6CCC(C5)N6)nc(OCC5(CN6CCC7(CC6)CC(N6CCC(c8cc9c(cc8F)c(N8CCC(=O)NC8=O)nn9C)CC6)C7)CC5)nc4c3F)c12
Output line: 0.458

---

METHOD SUMMARY: Clearance in male ICR mouse at 1 mg/kg, iv measured up to 24 hrs by LC-MS/MS analysis
Type: ADME, organism-based
SETUP CONDITIONS: in vivo
MEASURED METRIC: clearance

Input line: Dear colleague, I am looking for the recorded clearance of the following molecule: C#Cc1c(F)ccc2cc(O)cc(-c3ncc4c(N5CC6CCC(C5)N6)nc(OCC5(CN6CCC7(CC6)CC(N6CCC(c8cc9c(cc8F)c(N8CCC(=O)NC8=O)nn9C)CC6)C7)CC5)nc4c3F)c12
Output line: 39 mL/min/kg

---

METHOD SUMMARY: Half life in male cynomolgus monkey at 1 mg/kg, iv measured up to 24 hrs by LC-MS/MS analysis
Format: ADME, organism-based, Macaca fascicularis
SETUP CONDITIONS: in vivo
MEASURED METRIC: half-life (min)
Give the quantity in min, number only.

Input line: Dear colleague, I am looking for the recorded half-life of the following compound: C#Cc1c(F)ccc2cc(O)cc(-c3ncc4c(N5CC6CCC(C5)N6)nc(OCC5(CN6CCC7(CC6)CC(N6CCC(c8cc9c(cc8F)c(N8CCC(=O)NC8=O)nn9C)CC6)C7)CC5)nc4c3F)c12
Output line: 744

---

METHOD SUMMARY: Metabolic stability in dog liver microsomes assessed as half life at 1 uM preincubated for 3 mins with NADPH and measured up to 60 mins by LC-MS/MS analysis
Type: ADME, Canis lupus familiaris, Microsome
SETUP CONDITIONS: time < 63 min
MEASURED METRIC: half-life at 1 µM (h)
Give the quantity in h, number only.

Input line: Dear colleague, I am looking for the recorded half-life at 1 µM of the following compound: C#Cc1c(F)ccc2cc(O)cc(-c3ncc4c(N5CC6CCC(C5)N6)nc(OCC5(CN6CCC7(CC6)CC(N6CCC(c8cc9c(cc8F)c(N8CCC(=O)NC8=O)nn9C)CC6)C7)CC5)nc4c3F)c12
Output line: 7.22
